Measured values drawn from patent US5399543A for this set.

tested on: Cocklebur; assay: Preemergence herbicidal activity, cocklebur; assay type: in vivo, Xanthium pensylvanicum; settings: Xanthium strumarium, pre-emergence, 0.3 kg/ha, after 17-21 days, read-out: Preemergence herbicidal activity (% control), Cocklebur
assayReadout: activity at 300 g/ha

Inquiry: What value of activity at 300 g/ha has been reported for the following compound? "Cn1c(C(F)(F)F)cc(=O)n(-c2ccc(OCc3ccc(F)cc3)cc2)c1=O"
Reply text: 40%

Inquiry: Follow-up item: "Cc1cc(OCc2ccccc2)ccc1-n1c(=O)cc(C(F)(F)F)n(C)c1=O"
Reply text: 0%

Inquiry: Follow-up item: "Cn1c(C(F)(F)F)cc(=O)n(-c2ccc(OCc3ccc(F)cc3)cc2F)c1=O"
Reply text: 90%

Inquiry: Follow-up item: "Cn1c(C(F)(F)F)cc(=O)n(-c2ccc(OCc3ccccc3)cc2F)c1=O"
Reply text: 50%

Inquiry: Follow-up item: "Cn1c(C(F)(F)F)cc(=O)n(-c2ccc(OCc3ccccc3Cl)cc2)c1=O"
Reply text: 10%

Inquiry: Follow-up item: "COc1ccccc1COc1ccc(-n2c(=O)cc(C(F)(F)F)n(C)c2=O)cc1"
Reply text: 20%

Inquiry: Follow-up item: "COc1cccc(COc2ccc(-n3c(=O)cc(C(F)(F)F)n(C)c3=O)cc2)c1"
Reply text: 0%

Inquiry: Follow-up item: "Cn1c(C(F)(F)F)cc(=O)n(-c2ccc(OCc3ccc(Cl)cc3)cc2)c1=O"
Reply text: 30%

Inquiry: Follow-up item: "Cn1c(C(F)(F)F)cc(=O)n(-c2ccc(OCc3c(Cl)cccc3Cl)cc2)c1=O"
Reply text: 0%

Inquiry: Follow-up item: "Cn1c(C(F)(F)F)cc(=O)n(-c2ccc(OCc3cccc(Cl)c3)cc2)c1=O"
Reply text: 0%

Inquiry: Follow-up item: "Cn1c(C(F)(F)F)cc(=O)n(-c2ccc(OCc3ccc(Cl)c(Cl)c3)cc2)c1=O"
Reply text: 20%

Inquiry: Follow-up item: "Cn1c(C(F)(F)F)cc(=O)n(-c2ccc(OCc3ccccc3)cc2)c1=O"
Reply text: 75%

Inquiry: Follow-up item: "Cn1c(C(F)(F)F)cc(=O)n(-c2ccc(OCc3ccc(Cl)cc3Cl)cc2)c1=O"
Reply text: 10%

Inquiry: Follow-up item: "Cn1c(C(F)(F)F)cc(=O)n(-c2ccc(OCc3ccc(C(F)(F)F)cc3)cc2)c1=O"
Reply text: 50%

Inquiry: Follow-up item: "Cn1c(C(F)(F)F)cc(=O)n(-c2ccc(OCc3ccc(Cl)cc3)cc2F)c1=O"
Reply text: 100%

Inquiry: Follow-up item: "Cn1c(C(F)(F)F)cc(=O)n(-c2ccc(OCc3cccc(Cl)c3Cl)cc2)c1=O"
Reply text: 0%

Inquiry: Follow-up item: "Cc1cc(OCc2ccc(Cl)cc2)ccc1-n1c(=O)cc(C(F)(F)F)n(C)c1=O"
Reply text: 0%

Inquiry: Follow-up item: "Cn1c(C(F)(F)F)cc(=O)n(-c2ccc(OCc3cc(Cl)cc(Cl)c3)cc2)c1=O"
Reply text: 0%

Inquiry: Follow-up item: "COc1ccc(COc2ccc(-n3c(=O)cc(C(F)(F)F)n(C)c3=O)cc2)cc1"
Reply text: 25%

====

tested on: Chickweed; test: Preemergence herbicidal activity, chickweed; assay type: in vivo; conditions: Stellaria media, pre-emergence, 0.3 kg/ha, after 17-21 days, read-out: Preemergence herbicidal activity (% control), Chickweed
Exercise: for every item that follows, state its recorded activity at 300 g/ha.
Please state the figure in %; there is no need to write the unit.

Inquiry: What value of activity at 300 g/ha has been reported for the following molecule? "Cn1c(C(F)(F)F)cc(=O)n(-c2ccc(OCc3cccc(Cl)c3Cl)cc2)c1=O"
Reply text: 0

Inquiry: Follow-up item: "Cn1c(C(F)(F)F)cc(=O)n(-c2ccc(OCc3ccc(C(F)(F)F)cc3)cc2)c1=O"
Reply text: 100

Inquiry: Follow-up item: "Cn1c(C(F)(F)F)cc(=O)n(-c2ccc(OCc3ccc(Cl)cc3)cc2)c1=O"
Reply text: 100

Inquiry: Follow-up item: "COc1ccccc1COc1ccc(-n2c(=O)cc(C(F)(F)F)n(C)c2=O)cc1"
Reply text: 80

====

tested on: Chickweed; test: Postemergence herbicidal activity, chickweed; type: in vivo; settings: Stellaria media, post-emergence, 0.3 kg/ha, after 17-21 days, read-out: Postemergence herbicidal activity (% control), Chickweed
Exercise: for every item that follows, state its recorded activity at 300 g/ha.
Please state the figure in %; there is no need to write the unit.

Inquiry: What value of activity at 300 g/ha has been reported for the following molecule? "Cn1c(C(F)(F)F)cc(=O)n(-c2ccc(OCc3ccccc3)cc2)c1=O"
Reply text: 95

Inquiry: Follow-up item: "Cn1c(C(F)(F)F)cc(=O)n(-c2ccc(OCc3ccc(C(F)(F)F)cc3)cc2)c1=O"
Reply text: 15

Inquiry: Follow-up item: "Cn1c(C(F)(F)F)cc(=O)n(-c2ccc(OCc3cccc(Cl)c3Cl)cc2)c1=O"
Reply text: 0

Inquiry: Follow-up item: "Cn1c(C(F)(F)F)cc(=O)n(-c2ccc(OCc3ccccc3)cc2F)c1=O"
Reply text: 80

Inquiry: Follow-up item: "Cc1cc(OCc2ccc(Cl)cc2)ccc1-n1c(=O)cc(C(F)(F)F)n(C)c1=O"
Reply text: 30

Inquiry: Follow-up item: "Cn1c(C(F)(F)F)cc(=O)n(-c2ccc(OCc3ccccc3Cl)cc2)c1=O"
Reply text: 0

Inquiry: Follow-up item: "Cn1c(C(F)(F)F)cc(=O)n(-c2ccc(OCc3c(Cl)cccc3Cl)cc2)c1=O"
Reply text: 0

Inquiry: Follow-up item: "Cn1c(C(F)(F)F)cc(=O)n(-c2ccc(OCc3ccc(F)cc3)cc2)c1=O"
Reply text: 100

====

Exercise: for every item that follows, state its recorded activity at 300 g/ha.
system: Blackgrass; experiment: Postemergence herbicidal activity, blackgrass; format: in vivo, Aloepecurus myosuroides; conditions: Alopecurus myosuroides, post-emergence, 0.3 kg/ha, after 17-21 days, read-out: Postemergence herbicidal activity (% control), Blackgrass
Please state the figure in %; there is no need to write the unit.

Inquiry: What value of activity at 300 g/ha has been reported for the following molecule? COc1cccc(COc2ccc(-n3c(=O)cc(C(F)(F)F)n(C)c3=O)cc2)c1 [Compound 8]
Reply text: 10

Inquiry: Follow-up item: COc1ccc(COc2ccc(-n3c(=O)cc(C(F)(F)F)n(C)c3=O)cc2)cc1 [Compound 44]
Reply text: 50

Inquiry: Follow-up item: Cn1c(C(F)(F)F)cc(=O)n(-c2ccc(OCc3ccc(C(F)(F)F)cc3)cc2)c1=O [Compound 22]
Reply text: 30

Inquiry: Follow-up item: Cn1c(C(F)(F)F)cc(=O)n(-c2ccc(OCc3ccccc3Cl)cc2)c1=O [Compound 2]
Reply text: 0

Inquiry: Follow-up item: Cc1cc(OCc2ccccc2)ccc1-n1c(=O)cc(C(F)(F)F)n(C)c1=O [Compound 12]
Reply text: 0

Inquiry: Follow-up item: Cn1c(C(F)(F)F)cc(=O)n(-c2ccc(OCc3cccc(Cl)c3)cc2)c1=O [Compound 3]
Reply text: 0

Inquiry: Follow-up item: Cc1cc(OCc2ccc(Cl)cc2)ccc1-n1c(=O)cc(C(F)(F)F)n(C)c1=O [Compound 13]
Reply text: 20

====

Exercise: for every item that follows, state its recorded activity at 300 g/ha.
test system: Chickweed; test: Postemergence herbicidal activity, chickweed; assay type: in vivo; conditions: Stellaria media, post-emergence, 0.3 kg/ha, after 17-21 days, read-out: Postemergence herbicidal activity (% control), Chickweed
Please state the figure in %; there is no need to write the unit.

Inquiry: What activity at 300 g/ha appears in the records for this molecule with Chickweed? "COc1ccccc1COc1ccc(-n2c(=O)cc(C(F)(F)F)n(C)c2=O)cc1"
Reply text: 15

Inquiry: Follow-up item: "COc1cccc(COc2ccc(-n3c(=O)cc(C(F)(F)F)n(C)c3=O)cc2)c1"
Reply text: 100

Inquiry: Follow-up item: "Cn1c(C(F)(F)F)cc(=O)n(-c2ccc(OCc3cccc(Cl)c3)cc2)c1=O"
Reply text: 70

Inquiry: Follow-up item: "Cc1cc(OCc2ccccc2)ccc1-n1c(=O)cc(C(F)(F)F)n(C)c1=O"
Reply text: 0

Inquiry: Follow-up item: "Cn1c(C(F)(F)F)cc(=O)n(-c2ccc(OCc3ccc(Cl)cc3Cl)cc2)c1=O"
Reply text: 0

Inquiry: Follow-up item: "Cn1c(C(F)(F)F)cc(=O)n(-c2ccc(OCc3ccc(Cl)cc3)cc2)c1=O"
Reply text: 100

Inquiry: Follow-up item: "Cn1c(C(F)(F)F)cc(=O)n(-c2ccc(OCc3ccc(Cl)cc3)cc2F)c1=O"
Reply text: 100

Inquiry: Follow-up item: "Cn1c(C(F)(F)F)cc(=O)n(-c2ccc(OCc3cc(Cl)cc(Cl)c3)cc2)c1=O"
Reply text: 0
